Recorded CAMK1d Tm-Shift by entry
Measured on: UniProtKB Q8IU85
Sequence (Q8IU85 1-333): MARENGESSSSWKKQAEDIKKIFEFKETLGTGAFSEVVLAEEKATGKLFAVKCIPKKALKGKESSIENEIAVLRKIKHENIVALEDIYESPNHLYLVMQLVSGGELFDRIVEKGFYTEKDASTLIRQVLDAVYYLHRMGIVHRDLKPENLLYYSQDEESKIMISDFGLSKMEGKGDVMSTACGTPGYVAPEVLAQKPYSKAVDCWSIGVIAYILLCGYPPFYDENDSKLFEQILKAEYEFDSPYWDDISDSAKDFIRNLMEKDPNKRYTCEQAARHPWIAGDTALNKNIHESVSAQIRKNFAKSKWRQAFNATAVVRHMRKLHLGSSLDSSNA
Protocol notes: Tm-Shift assay (thermal melting, SYPRO Orange)
Assay type: binding
Assay context: compound 10 μM, protein 2 μM; ΔTm obs vs protein without ligand; triplicate

>  <Chemical string>
CN(C)S(=O)(=O)c1cc(Nc2nc(N3CCC[C@H](N)C3)ncc2C(N)=O)cc(C(C)(C)C)c1

>  <Measured on>
UniProtKB Q8IU85

>  <CAMK1d Tm-Shift (°C)>
12.9

$$$$
>  <Chemical string>
CN(C)CCN(C)C(=O)c1cccc(Nc2nc(N3CCC[C@H](N)C3)ncc2C(N)=O)c1

>  <Measured on>
UniProtKB Q8IU85

>  <CAMK1d Tm-Shift (°C)>
8.1

$$$$
>  <Chemical string>
Cc1ccc(Nc2nc(N3CCC[C@H](N)C3)ncc2C(N)=O)cc1S(=O)(=O)N1CCCCC1

>  <Measured on>
UniProtKB Q8IU85

>  <CAMK1d Tm-Shift (°C)>
9.9

$$$$
>  <Chemical string>
CC(C)(C)c1cc(Nc2nc(N3CCC[C@H](N)C3)ncc2C(N)=O)cc(S(=O)(=O)N2CCOCC2)c1

>  <Measured on>
UniProtKB Q8IU85

>  <CAMK1d Tm-Shift (°C)>
11.5

$$$$
>  <Chemical string>
CN(C)C(=O)c1cc(Nc2nc(N3CCC[C@H](N)C3)ncc2C(N)=O)cc(C(C)(C)C)c1

>  <Measured on>
UniProtKB Q8IU85

>  <CAMK1d Tm-Shift (°C)>
12.5

$$$$
>  <Chemical string>
CC1(C)COCCN1C(=O)c1cccc(Nc2nc(N3CCC[C@H](N)C3)ncc2C(N)=O)c1

>  <Measured on>
UniProtKB Q8IU85

>  <CAMK1d Tm-Shift (°C)>
9.5

$$$$
